Test system: SF-268 CNS
Experiment: NCI tumour cell line growth inhibition, 48 h
Property measured: TGI

compound=O=[N+]([O-])c1ccc(Cc2nc3cc4ccccc4cc3[nH]2)cc1C(F)(F)F val="39 µM"
compound=O=S(=O)(Nc1nccs1)c1ccc([As](=O)(O)O)cc1 val="> 100 µM"
compound=Fc1ccc(Oc2nc3ccccc3nc2-c2ccccc2)cc1 val="> 100 µM"
compound=COc1ccc(CN2C(=O)/C(=C\C(=O)c3ccc(OCCN4CCCC4)cc3)c3ccccc32)cc1 val="42.7 µM"
compound="O=C(CN(Cc1ccccc1)Cc1ccccc1)N1CCc2c([nH]c3ccccc23)C1c1cccnc1 (stereo not given)" val="> 100 µM"
compound="COc1cc(N2CCN(C(C)C)CC2)ccc1Nc1nc(Nc2ccc(F)cc2C(=O)NCC(O)CO)c2cc[nH]c2n1 (stereo not given)" val="> 25 µM"
compound=CCCCCCCCCC(=O)NCCc1c[nH]c2ccc(OC)cc12 val="34.2 µM"
compound=Clc1ccc(-c2nc3c(-c4ccccc4)nc(-c4ccccc4)cn3c2-c2ccc(Cl)cc2)cc1 val="> 100 µM"
compound="Nc1nc(=S)c2ncn(C3OC(CO)C(O)C3O)c2[nH]1 (stereo not given)" val="> 100 µM"
compound=Cc1ccccc1C=NC12CC3CC(CC(C3)C1)C2 val="> 100 µM"

---

Test system: NCI/ADR-RES ovarian
Assay: NCI tumour cell line growth inhibition, 48 h
Property measured: TGI

molecule="CC(NC(=O)C(N)CC(=O)O)C(=O)OC12CC3CC(CC(C3)C1)C2 (stereo unspecified)" val="> 100 µM"
molecule=CCCCCCCCCCCCNC(=O)N[C@H](C(=O)N[C@H]1/C=C/CCNC(=O)/C=C/[C@H](C)NC1=O)C(C)C val="> 100 µM"
molecule=CS(=O)(=O)c1ccc2c(c1)C(=O)c1c-2n(CCCBr)c(=O)c2cc([N+](=O)[O-])ccc12 val="> 100 µM"
molecule=O=c1sc(Nc2ccc3ccccc3c2Cl)nc2ccccc12 val="> 100 µM"
molecule=O=C1Nc2ccc(O)cc2/C1=C\c1ccncc1 val="60.1 µM"
molecule=O=C(O)c1ccc(NCc2nc3ccccc3[nH]2)cc1 val="> 100 µM"
molecule=COc1ccc(Cc2cc(OC)c(OC)c(OC)c2)cc1 val="> 100 µM"
molecule=N#Cc1sc2c(c1OC(=O)c1ccc(Cl)cc1)c(=O)n(-c1ccccc1)c(=S)n2-c1ccccc1 val="73.2 µM"
molecule=C=C1C(=O)O[C@@H]2C[C@@H]1CC[C@]1(C)O[C@H]1CC/C(C)=C/CC[C@@]2(C)O val="56.3 µM"
molecule=O=C1NC(=S)N/C1=C\c1ccc(Cl)cc1 val="> 100 µM"
molecule=CCOC(=O)c1cc(C2=CCNC2=O)c(-c2cc(C)no2)[nH]1 val="> 100 µM"

---

System: OVCAR-4 ovarian
Experiment: NCI tumour cell line growth inhibition, 48 h; in the data active = GI50 below about 0.43 µM; inactive = the rest
Outcome codes: class 1 = active, class 0 = inactive

compound=CN1CCN(Cc2ccc(NC(=O)c3cncc(C#Cc4c(N)ncc5c(F)cccc45)c3)cc2C(F)(F)F)CC1 group_label="class 0"
compound=O=C(O)c1ccc(NCc2nc3ccccc3[nH]2)cc1 group_label="class 0"
compound=Cc1cc(I)cc(CNCCN2CCOCC2)c1O group_label="class 0"
compound=c1ccc(COCC[P+](c2ccccc2)(c2ccccc2)c2ccccc2)cc1 group_label="class 0"
compound=CN1C(=O)/C(=C2\S/C(=N\c3nnc(-c4ccccc4)o3)NC2=O)c2ccccc21 group_label="class 0"
compound=O=c1c2ccccc2nc2n1CCc1c-2[nH]c2cc3c(cc12)OCO3 group_label="class 0"
compound=CNCCCn1c2c(c3ccc(Cl)cc3c1=O)C(=O)c1cc(OC)cnc1-2 group_label="class 0"
compound=O=C(NCCCl)NCCN1c2nc3ccccc3cc2Sc2cc3ccccc3nc21 group_label="class 0"
compound=CCCCCCCCCCCCNC(=O)N[C@H](C(=O)N[C@H]1/C=C/CCNC(=O)/C=C/[C@H](C)NC1=O)C(C)C group_label="class 1"
compound="Clc1ccc(C2CC(c3cccc(Nc4ccncc4)c3)=NN2c2ccccc2)cc1 (stereo unspecified)" group_label="class 0"
compound=Cc1ccc(S(=O)(=O)OCC(=O)Nc2ccc(C(=O)O)c(O)c2)cc1 group_label="class 0"
compound=Cc1cncc(-c2nc(NCCc3c[nH]c4ccccc34)c3ncn(C(C)C)c3n2)c1 group_label="class 0"
compound="CC(=O)OC1CC2C(C)(C)CCC[C@]2(C)C2=C1C(O)=C(C(C)C)C(=O)C2=O (stereo partly specified)" group_label="class 0"
compound=O=C(/C=C\c1cc(Br)ccc1O)/C=C/c1cc(Br)ccc1O group_label="class 0"
compound=COc1ccc(/C(=C/c2ccc3ccccc3c2)c2nn[nH]n2)cc1OC group_label="class 0"
compound=CCC1=C[C@@H]2CN(C1)Cc1c([nH]c3ccccc13)[C@@](C(=O)OC)(c1cc3c(cc1OC)N(C)[C@H]1[C@@](O)(C(=O)OC)[C@H](OC(C)=O)[C@]4(CC)C=CCN5CC[C@]31[C@@H]54)C2 group_label="class 1"
compound="COc1cc(N2CCN(C(C)C)CC2)ccc1Nc1nc(Nc2ccc(F)cc2C(=O)NCC(O)CO)c2cc[nH]c2n1 (stereo unspecified)" group_label="class 0"
compound=CC(C)C(=O)Nc1ccc(-c2nc(-c3cccc(OCCN4CCOCC4)c3)c(-c3ccnc(Br)c3)[nH]2)cc1 group_label="class 0"
compound="C=C1C[C@@H](O)[C@@H](Br)C(C)(C)[C@]12CCC(C)(Br)C(Cl)C2 (stereo partly specified)" group_label="class 0"
compound=COc1ccc(CN2C(=O)/C(=C\C(=O)c3ccc(OCCN4CCCC4)cc3)c3ccccc32)cc1 group_label="class 0"
compound="CC(=O)NC(CS)C(=O)O (stereo unspecified)" group_label="class 0"
